Cited source: PubChem BioAssay (NCI)

System: SK-MEL-5 melanoma
protocolNotes: NCI tumour cell line growth inhibition, 48 h
quantityKind: TGI

**Query** So what does the record say about TGI for COc1ccc(NC(/C(C(=O)C(=O)/C=C(\O)c2ccccc2)=C(\O)c2ccccc2)c2ccc(OC)cc2)cc1 (centres undefined) ?
**Result** > 100 µM

**Query** So what does the record say about TGI for N#CCC(=O)Nc1ccccc1O ?
**Result** > 100 µM

**Query** So what does the record say about TGI for c1ccc2c(c1)[nH]c1c3ccccc3sc21 ?
**Result** > 100 µM

**Query** So what does the record say about TGI for COc1ccc(-c2nnc(Nc3nc(O)c(C4=c5cc(Br)ccc5=NC4=O)s3)o2)cc1 ?
**Result** > 59.5 µM

**Query** So what does the record say about TGI for O=C(O)c1[nH]c2c([N+](=O)[O-])cc([N+](=O)[O-])cc2c1C(=O)O ?
**Result** > 100 µM

**Query** So what does the record say about TGI for C=CCC1C(=O)CC2(C)C(CC=C)C(=O)CC12C (centres undefined) ?
**Result** > 100 µM

**Query** So what does the record say about TGI for N#CC(C#N)=Cn1c(=S)[nH]c2ccc([N+](=O)[O-])cc21 ?
**Result** > 100 µM

**Query** So what does the record say about TGI for COC1C(=O)N(SC)C1c1ccccc1Cl (centres undefined) ?
**Result** > 100 µM

**Query** So what does the record say about TGI for Oc1cc(O)c2c(c1)OC(c1ccc(O)c(O)c1)C(O)C2c1c(O)cc(O)c2c1OC(c1ccc(O)c(O)c1)C(O)C2 (centres undefined) ?
**Result** > 100 µM
